tested on: ATP; test: switch fluorescence ratio, 500 uM ATP over buffer (Cy3 cluster intensity, sum of 5 cycles each) (fold (ratio)); higher = stronger signal-on switching upon ATP binding; sequences stand for … in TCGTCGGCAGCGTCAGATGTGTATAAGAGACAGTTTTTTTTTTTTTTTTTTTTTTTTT…TC; conditions: aptamer strand: ATP DNA aptamer (quencher-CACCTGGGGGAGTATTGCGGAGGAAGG + anchor), 100 nM annealed; ATP concentration: 500 uM;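 note: ATP exposure 15 min at 22 °C before imaging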
endpoint_label: switch fluorescence ratio
One number for each entry.

Below are worked cases with known answers.
TCGGGGGGCT :: 1.06
CCAGTTAGGA :: 1.01
CGGGGACGGG :: 1.02
AAAGGAAAAC :: 1
CAAGGGAGGG :: 0.991

Quick batch: switch fluorescence ratio for everything below.
1. TGCTCAGCTG
2. TACTTATCCT

Completion:
1. 1.04
2. 1.05

====

For each entry below, report its switch fluorescence ratio value.
tested on: ATP; assay: switch fluorescence ratio, 500 uM ATP over buffer (Cy3 cluster intensity, sum of 5 cycles each) (fold (ratio)); higher = stronger signal-on switching upon ATP binding; sequences stand for … in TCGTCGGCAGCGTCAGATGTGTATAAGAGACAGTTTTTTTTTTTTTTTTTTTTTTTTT…TC; conditions: aptamer strand: ATP DNA aptamer (quencher-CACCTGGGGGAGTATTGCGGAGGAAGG + anchor), 100 nM annealed; ATP concentration: 500 uM;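 note: ATP exposure 15 min at 22 °C before imaging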
Numbers only.

AATAGACCTT :: 1.13
AATAAGAGAC :: 1.01
ATAATTTGGG :: 0.99
TCCAGGGGTC :: 1.38
TGTCAGTGCT :: 1.02

Okay, here is my list. What is switch fluorescence ratio for each of these?
1. CATTCCGGGA
2. GATGGTGTGA
3. AAATTGCTTA
4. CGGCTGTATG
5. AGAGCCGGGG

Completion:
1.63
0.978
1
0.988
0.978

Batch request: switch fluorescence ratio for each of the following sequences.
1. AGGACCATGT
2. AAATAGAAAT

Completion:
1. 1.01
2. 0.96

List the reported switch fluorescence ratio of each sequence below.
1. GGTAGCTTGG
2. TAAATGGTGG

Completion:
[1.13, 0.977]

Take each entry in turn and give its switch fluorescence ratio.
1. AGTTAAAATA
2. TTTTTTCTGG
3. ATTTTGTGGG
4. TTCAGGGGGT
5. AGTCTGAAGA
6. TGTGTCAGCT

Completion:
1: 1; 2: 1; 3: 1; 4: 1.02; 5: 0.987; 6: 0.998

====

tested on: ATP; experiment: switch fluorescence ratio, 500 uM ATP over buffer (Cy3 cluster intensity, sum of 5 cycles each) (fold (ratio)); higher = stronger signal-on switching upon ATP binding; sequences stand for … in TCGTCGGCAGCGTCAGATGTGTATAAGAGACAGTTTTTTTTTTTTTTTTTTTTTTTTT…TC; conditions: aptamer strand: ATP DNA aptamer (quencher-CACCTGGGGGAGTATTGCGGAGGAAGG + anchor), 100 nM annealed; ATP concentration: 500 uM;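 note: ATP exposure 15 min at 22 °C before imaging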
For each entry below, report its switch fluorescence ratio value.
Answers are plain numbers.

TTAGTTCGGG :: 0.965
CGGGGAGGAG :: 1.02
TATCGCCGAA :: 0.997
ACTTGCTTGT :: 1.02
CGTTGTGGAA :: 1.01
AGGGGGCGTC :: 1.02
TCATTTAGGG :: 0.989
CCGGGTATGG :: 1.02

Could you tell me switch fluorescence ratio for each of these sequences? They are listed below.
1. TGTTTTGAGA
2. CTGAACAGTA
3. CGGTGGGTGC
4. GCGATTTATG
5. GCCGGATT
6. GAATAGGGTG
7. AAAATGGTGC
8. TGTCAGGGCC

Completion:
[1, 1.02, 0.997, 0.972, 1.01, 1.08, 1.06, 1.04]

Below are some sequences; for each one, tell me its switch fluorescence ratio.
1. TAAATTCAGA
2. GAGGGAAGTT
3. ATGTAATTAA

Completion:
1. 0.994
2. 1.04
3. 0.964

For each of the items listed, what is its switch fluorescence ratio?
1. ACCAACTCAA
2. ATTGGAGGTT

Completion:
1. 1.18
2. 0.995
